molecular target: Perilipin-5 (Homo sapiens) + 1-acylglycerol-3-phosphate O-acyltransferase ABHD5 (Homo sapiens) (UniProt Q00G26+Q8WTS1); assay: blockers of ABHD5 binding to perilipin-5 – cell lysate, luminescence, proteins expressed in HEK293T, dose response (AID 651733); details: ABHD5-PLIN5 interaction;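 further: split Gaussia princeps luciferase complementation between ABHD5 and MLDP fusion proteins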
Sequence (Q00G26 whole entry, looked up, the tested form may be a part): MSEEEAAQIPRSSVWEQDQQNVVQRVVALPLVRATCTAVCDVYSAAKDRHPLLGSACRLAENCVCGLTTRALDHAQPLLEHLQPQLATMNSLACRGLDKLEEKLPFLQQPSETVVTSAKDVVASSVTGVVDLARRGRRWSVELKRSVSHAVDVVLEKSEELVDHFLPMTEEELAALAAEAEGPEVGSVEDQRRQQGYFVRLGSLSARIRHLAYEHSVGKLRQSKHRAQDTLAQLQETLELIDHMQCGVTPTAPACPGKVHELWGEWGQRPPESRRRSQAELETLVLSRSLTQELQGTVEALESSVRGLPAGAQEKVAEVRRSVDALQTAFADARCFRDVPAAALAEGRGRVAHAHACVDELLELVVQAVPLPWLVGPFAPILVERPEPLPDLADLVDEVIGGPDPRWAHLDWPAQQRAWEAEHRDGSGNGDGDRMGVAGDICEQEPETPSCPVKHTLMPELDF
Sequence (Q8WTS1 whole entry, looked up, the tested form may be a part): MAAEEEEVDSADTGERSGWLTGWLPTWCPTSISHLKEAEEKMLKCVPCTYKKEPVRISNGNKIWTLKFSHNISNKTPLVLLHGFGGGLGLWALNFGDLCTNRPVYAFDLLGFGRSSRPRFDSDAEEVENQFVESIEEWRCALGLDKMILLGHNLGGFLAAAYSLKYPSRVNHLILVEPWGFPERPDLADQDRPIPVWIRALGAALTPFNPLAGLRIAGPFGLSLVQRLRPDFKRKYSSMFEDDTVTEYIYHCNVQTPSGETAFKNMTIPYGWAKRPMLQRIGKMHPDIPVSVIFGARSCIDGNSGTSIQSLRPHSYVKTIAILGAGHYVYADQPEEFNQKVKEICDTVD
Active and inactive are the calls of the source. How the calls were made is not given here.
Allowed answers: y = active, n = inactive

Could you check what this test reported for Oc1c(C(c2ccccc2)N2CCCCC2)ccc2ccccc12 (stereo not given) ?
y

Could you check what this test reported for COc1ccc(C)c2sc(N(CCN(C)C)C(=O)/C=C/c3cccs3)nc12 ?
n

Could you check what this test reported for CCOC(=O)c1c(C)oc2c1c(CN1CCN(CCO)CC1)c(O)c1ccccc12 ?
y

Could you check what this test reported for O=C(COc1ccccc1Cl)Nc1ccc(N2CCCC2)cc1 ?
n

Could you check what this test reported for CCN(CC)CCOCCOC(=O)C1(c2ccccc2)CCCC1 ?
y

Could you check what this test reported for COc1ccc(NC(=O)C(c2cccc3ccccc23)n2c(=O)c(-c3ccco3)nc3ccccc32)cc1 (stereo not given) ?
n

Could you check what this test reported for O=C(NC1CCCCC1)C(c1ccccc1)n1c(=O)c(-c2ccco2)nc2ccccc21 (stereo not given) ?
y

Could you check what this test reported for COc1ccc(OCc2cn(CC(=O)c3ccc(O)cc3)nn2)cc1 ?
y

Could you check what this test reported for N#Cc1ccc(C(C(=O)Nc2ccc3c(c2)OCCO3)n2c(=O)c(-c3ccco3)nc3ccccc32)cc1 (stereo not given) ?
n

Could you check what this test reported for CC(C)c1ccc(N2C=Nc3ccc(C(C)C)cc3C2)cc1 ?
y
